conditions: 328.15 K; 101.33 kPa; Liquid; Vibrating tube method
assay metric: mass density (kg/m3)

- molecule: "OCCCCCCn1cc[nH+]c1.[Cl-] [1-(6-hydroxyhexyl)imidazolium chloride]"
  assay metric: "mass density"
  unit label: "kg/m3"
  obs value: 1121.67
- molecule: "CCn1cc[n+](CCCCCCO)c1.[Cl-] [1-ethyl-3-(6-hydroxyhexyl)-1H-imidazolium chloride]"
  assay metric: "mass density"
  unit label: "kg/m3"
  obs value: 1088.27
- molecule: "Cn1cc[n+](CCCCCCO)c1.[Cl-] [3-(6-hydroxyhexyl)-1-methylimidazolium chloride]"
  assay metric: "mass density"
  unit label: "kg/m3"
  obs value: 1105.92
- molecule: "CCCCn1cc[n+](CCCCCCO)c1.[Cl-] [1-butyl-3-(6-hydroxyhexyl)-1H-imidazolium chloride]"
  assay metric: "mass density"
  unit label: "kg/m3"
  obs value: 1049.89

----------
settings: 318.15 K; 101.33 kPa; Liquid; Vibrating tube method
Each entry below carries its recorded mass density.
assay metric: mass density (kg/m3)

- compound: "CCn1cc[n+](CCCCCCO)c1.[Cl-] [1-ethyl-3-(6-hydroxyhexyl)-1H-imidazolium chloride]"
  assay metric: "mass density"
  obs value: 1093.53
- compound: "Cn1cc[n+](CCCCCCO)c1.[Cl-] [3-(6-hydroxyhexyl)-1-methylimidazolium chloride]"
  assay metric: "mass density"
  obs value: 1111.28
- compound: "CCCCn1cc[n+](CCCCCCO)c1.[Cl-] [1-butyl-3-(6-hydroxyhexyl)-1H-imidazolium chloride]"
  assay metric: "mass density"
  obs value: 1055.25
- compound: "OCCCCCCn1cc[nH+]c1.[Cl-] [1-(6-hydroxyhexyl)imidazolium chloride]"
  assay metric: "mass density"
  obs value: 1127.58

----------
details: 308.15 K, Pendant drop shape
assay metric: surface tension liquid-gas (mN/m)

- compound: "OCCCCCCn1cc[nH+]c1.[Cl-] [1-(6-hydroxyhexyl)imidazolium chloride]"
  obs value: 48.85
- compound: "CCn1cc[n+](CCCCCCO)c1.[Cl-] [1-ethyl-3-(6-hydroxyhexyl)-1H-imidazolium chloride]"
  obs value: 39.95
- compound: "CCCCn1cc[n+](CCCCCCO)c1.[Cl-] [1-butyl-3-(6-hydroxyhexyl)-1H-imidazolium chloride]"
  obs value: 29.65
- compound: "Cn1cc[n+](CCCCCCO)c1.[Cl-] [3-(6-hydroxyhexyl)-1-methylimidazolium chloride]"
  obs value: 47.75

----------
Each entry below carries its recorded mass density.
settings: 348.15 K; 101.33 kPa; Liquid; Vibrating tube method

- molecule: "CCCCn1cc[n+](CCCCCCO)c1.[Cl-] [1-butyl-3-(6-hydroxyhexyl)-1H-imidazolium chloride]"
  unit label: "kg/m3"
  mass density: 1039.05
- molecule: "Cn1cc[n+](CCCCCCO)c1.[Cl-] [3-(6-hydroxyhexyl)-1-methylimidazolium chloride]"
  unit label: "kg/m3"
  mass density: 1095.59
- molecule: "OCCCCCCn1cc[nH+]c1.[Cl-] [1-(6-hydroxyhexyl)imidazolium chloride]"
  unit label: "kg/m3"
  mass density: 1109.92
- molecule: "CCn1cc[n+](CCCCCCO)c1.[Cl-] [1-ethyl-3-(6-hydroxyhexyl)-1H-imidazolium chloride]"
  unit label: "kg/m3"
  mass density: 1077.84

----------
Each entry below carries its recorded viscosity.
conditions: 298.15 K; 101.33 kPa; Liquid
± gives the expanded uncertainty stated by the source.
assay metric: viscosity

- molecule: "CCn1cc[n+](CCCCCCO)c1.[Cl-] [1-ethyl-3-(6-hydroxyhexyl)-1H-imidazolium chloride]"
  assay metric: "viscosity"
  obs value: "861.7 ± 100 mPa·s"
- molecule: "OCCCCCCn1cc[nH+]c1.[Cl-] [1-(6-hydroxyhexyl)imidazolium chloride]"
  assay metric: "viscosity"
  obs value: "420 ± 36 mPa·s"
- molecule: "Cn1cc[n+](CCCCCCO)c1.[Cl-] [3-(6-hydroxyhexyl)-1-methylimidazolium chloride]"
  assay metric: "viscosity"
  obs value: "679.8 ± 72 mPa·s"
- molecule: "CCCCn1cc[n+](CCCCCCO)c1.[Cl-] [1-butyl-3-(6-hydroxyhexyl)-1H-imidazolium chloride]"
  assay metric: "viscosity"
  obs value: "983.3 ± 120 mPa·s"

----------
assay: refractive index (Na D-line) (dimensionless); settings: 303.15 K; 101.33 kPa; Liquid; Standard Abbe refractometry
assay metric: refractive index

- compound: "Cn1cc[n+](CCCCCCO)c1.[Cl-] [3-(6-hydroxyhexyl)-1-methylimidazolium chloride]"
  obs value: 1.508
- compound: "OCCCCCCn1cc[nH+]c1.[Cl-] [1-(6-hydroxyhexyl)imidazolium chloride]"
  obs value: 1.5067
- compound: "CCn1cc[n+](CCCCCCO)c1.[Cl-] [1-ethyl-3-(6-hydroxyhexyl)-1H-imidazolium chloride]"
  obs value: 1.5089
- compound: "CCCCn1cc[n+](CCCCCCO)c1.[Cl-] [1-butyl-3-(6-hydroxyhexyl)-1H-imidazolium chloride]"
  obs value: 1.5106

----------
Each entry below carries its recorded viscosity.
conditions: 323.15 K; 101.33 kPa; Liquid
assay metric: viscosity (mPa·s)

- compound: "CCn1cc[n+](CCCCCCO)c1.[Cl-] [1-ethyl-3-(6-hydroxyhexyl)-1H-imidazolium chloride]"
  assay metric: "viscosity"
  obs value: 163.9
- compound: "OCCCCCCn1cc[nH+]c1.[Cl-] [1-(6-hydroxyhexyl)imidazolium chloride]"
  assay metric: "viscosity"
  obs value: 110.4
- compound: "Cn1cc[n+](CCCCCCO)c1.[Cl-] [3-(6-hydroxyhexyl)-1-methylimidazolium chloride]"
  assay metric: "viscosity"
  obs value: 143.4
- compound: "CCCCn1cc[n+](CCCCCCO)c1.[Cl-] [1-butyl-3-(6-hydroxyhexyl)-1H-imidazolium chloride]"
  assay metric: "viscosity"
  obs value: 207.7

----------
conditions: 338.15 K; 101.33 kPa; Liquid; Vibrating tube method

- compound: "CCn1cc[n+](CCCCCCO)c1.[Cl-] [1-ethyl-3-(6-hydroxyhexyl)-1H-imidazolium chloride]"
  mass density [kg/m3]: 1083.07
- compound: "CCCCn1cc[n+](CCCCCCO)c1.[Cl-] [1-butyl-3-(6-hydroxyhexyl)-1H-imidazolium chloride]"
  mass density [kg/m3]: 1044.46
- compound: "OCCCCCCn1cc[nH+]c1.[Cl-] [1-(6-hydroxyhexyl)imidazolium chloride]"
  mass density [kg/m3]: 1115.77
- compound: "Cn1cc[n+](CCCCCCO)c1.[Cl-] [3-(6-hydroxyhexyl)-1-methylimidazolium chloride]"
  mass density [kg/m3]: 1100.78

----------
conditions: 313.15 K; 101.33 kPa; Liquid
Each entry below carries its recorded viscosity.

- compound: "CCn1cc[n+](CCCCCCO)c1.[Cl-] [1-ethyl-3-(6-hydroxyhexyl)-1H-imidazolium chloride]"
  viscosity [mPa·s]: 294
- compound: "OCCCCCCn1cc[nH+]c1.[Cl-] [1-(6-hydroxyhexyl)imidazolium chloride]"
  viscosity [mPa·s]: 180.5
- compound: "CCCCn1cc[n+](CCCCCCO)c1.[Cl-] [1-butyl-3-(6-hydroxyhexyl)-1H-imidazolium chloride]"
  viscosity [mPa·s]: 360.3
- compound: "Cn1cc[n+](CCCCCCO)c1.[Cl-] [3-(6-hydroxyhexyl)-1-methylimidazolium chloride]"
  viscosity [mPa·s]: 249.7

----------
test: refractive index (Na D-line) (dimensionless); settings: 293.15 K; 101.33 kPa; Liquid; Standard Abbe refractometry
± gives the expanded uncertainty stated by the source.

- compound: "OCCCCCCn1cc[nH+]c1.[Cl-] [1-(6-hydroxyhexyl)imidazolium chloride]"
  refractive index: "1.5093 ± 0.0005"
- compound: "Cn1cc[n+](CCCCCCO)c1.[Cl-] [3-(6-hydroxyhexyl)-1-methylimidazolium chloride]"
  refractive index: "1.5106 ± 0.0005"
- compound: "CCn1cc[n+](CCCCCCO)c1.[Cl-] [1-ethyl-3-(6-hydroxyhexyl)-1H-imidazolium chloride]"
  refractive index: "1.5115 ± 0.0005"
- compound: "CCCCn1cc[n+](CCCCCCO)c1.[Cl-] [1-butyl-3-(6-hydroxyhexyl)-1H-imidazolium chloride]"
  refractive index: "1.5132 ± 0.0005"

----------
assay: refractive index (Na D-line) (dimensionless); details: 308.15 K; 101.33 kPa; Liquid; Standard Abbe refractometry

- compound: "CCCCn1cc[n+](CCCCCCO)c1.[Cl-] [1-butyl-3-(6-hydroxyhexyl)-1H-imidazolium chloride]"
  refractive index: 1.5093
- compound: "OCCCCCCn1cc[nH+]c1.[Cl-] [1-(6-hydroxyhexyl)imidazolium chloride]"
  refractive index: 1.5054
- compound: "Cn1cc[n+](CCCCCCO)c1.[Cl-] [3-(6-hydroxyhexyl)-1-methylimidazolium chloride]"
  refractive index: 1.5067
- compound: "CCn1cc[n+](CCCCCCO)c1.[Cl-] [1-ethyl-3-(6-hydroxyhexyl)-1H-imidazolium chloride]"
  refractive index: 1.5076
